Data origin: the supplement of paper PMC7877785

- assay.overview: self-splicing fitness, log relative to wild type (ln ratio); higher = more splicing; Tetrahymena group I intron in knt gene, E. coli kanamycin selection, DiMSum; sequences stand for … in CUCUCU…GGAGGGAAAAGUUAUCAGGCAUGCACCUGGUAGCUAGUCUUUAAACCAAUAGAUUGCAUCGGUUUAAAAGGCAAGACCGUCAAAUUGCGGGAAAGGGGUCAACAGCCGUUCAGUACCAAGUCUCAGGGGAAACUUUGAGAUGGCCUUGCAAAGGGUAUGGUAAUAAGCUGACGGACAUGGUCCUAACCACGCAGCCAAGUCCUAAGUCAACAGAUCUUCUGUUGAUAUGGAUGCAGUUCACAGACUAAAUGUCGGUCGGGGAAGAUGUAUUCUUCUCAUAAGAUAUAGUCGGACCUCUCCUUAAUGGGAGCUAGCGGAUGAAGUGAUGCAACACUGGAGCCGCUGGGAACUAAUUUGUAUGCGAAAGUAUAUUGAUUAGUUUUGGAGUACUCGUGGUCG;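 further: selection with 25 µg/mL kanamycin versus none on LB agar overnight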
- applied.conditions: 30 °C
value.type: self-splicing fitness (ln)
// return a plain number; no unit text

1. CAGAAGCAAUAUUACGAUCU	-1.88
2. GCGAAGCAAUAUUACGCUCU	-1.7
3. CUGGAGCAAUAUUACGGCUC	-2.58
4. AUUGAGCAAUAUUACGGGGA	-2.32

Qu. So what does the record say about self-splicing fitness (ln) for ACAUAGCAAUAUUACGCUUG ?
Ans. -1.76

Qu. So what does the record say about self-splicing fitness (ln) for CUCGAGCAAUAUUACGAGGA ?
Ans. -1.94

Qu. So what does the record say about self-splicing fitness (ln) for CGCAAGCAAUAUUACGACUG ?
Ans. -0.662

Qu. So what does the record say about self-splicing fitness (ln) for CUACAGCAAUAUUACGUUAU ?
Ans. -3.96
